system: Staphylococcus aureus; assay: Antibacterial activity against clinical isolates of methicillin-resistant Staphylococcus aureus DM21455 after 24 hrs by […]; assay type: functional; conditions: DM21455, 24 h
Listed next: entries and their corresponding log10 of MIC.
OBSERVABLE: log10 of MIC (log10 of the value in µg/mL)

{"CPD_SMILES": "CCCCN(C)CCCCOc1cc2oc3cc(OCCCCN(C)CCCC)c(OC)c(CC=C(C)C)c3c(=O)c2c(O)c1CC=C(C)C", "OBSERVABLE": "log10 of MIC", "ASSAY_RESULT": 1.40}
{"CPD_SMILES": "COc1c(OCCCCN2CCCC2)cc2oc3cc(OCCCCN4CCCC4)c(CCC(C)C)c(O)c3c(=O)c2c1CCC(C)C", "OBSERVABLE": "log10 of MIC", "ASSAY_RESULT": 0.80}
{"CPD_SMILES": "COc1c(OCCCCN(C)C)cc2oc3cc(OCCCCN(C)C)c(CCC(C)C)c(O)c3c(=O)c2c1CCC(C)C", "OBSERVABLE": "log10 of MIC", "ASSAY_RESULT": 1.10}
{"CPD_SMILES": "COc1c(OCCCCN2CCC(O)CC2)cc2oc3cc(OCCCCN4CCC(O)CC4)c(CC=C(C)C)c(O)c3c(=O)c2c1CC=C(C)C", "OBSERVABLE": "log10 of MIC", "ASSAY_RESULT": 1.10}
{"CPD_SMILES": "COc1c(OCCCCN)cc2oc3cc(OCCCCN)c(CC=C(C)C)c(O)c3c(=O)c2c1CC=C(C)C", "OBSERVABLE": "log10 of MIC", "ASSAY_RESULT": 0.19}
{"CPD_SMILES": "CCN(CC)CCCCOc1cc2oc3cc(OCCCCN(CC)CC)c(OC)c(CC=C(C)C)c3c(=O)c2c(O)c1CC=C(C)C", "OBSERVABLE": "log10 of MIC", "ASSAY_RESULT": -0.41}
{"CPD_SMILES": "CCCN(CCC)CCCCOc1cc2oc3cc(OCCCCN(CCC)CCC)c(OC)c(CC=C(C)C)c3c(=O)c2c(O)c1CC=C(C)C", "OBSERVABLE": "log10 of MIC", "ASSAY_RESULT": 1.40}
